# Test system: UniProt:P00797
# Sequence (P00797 67-406): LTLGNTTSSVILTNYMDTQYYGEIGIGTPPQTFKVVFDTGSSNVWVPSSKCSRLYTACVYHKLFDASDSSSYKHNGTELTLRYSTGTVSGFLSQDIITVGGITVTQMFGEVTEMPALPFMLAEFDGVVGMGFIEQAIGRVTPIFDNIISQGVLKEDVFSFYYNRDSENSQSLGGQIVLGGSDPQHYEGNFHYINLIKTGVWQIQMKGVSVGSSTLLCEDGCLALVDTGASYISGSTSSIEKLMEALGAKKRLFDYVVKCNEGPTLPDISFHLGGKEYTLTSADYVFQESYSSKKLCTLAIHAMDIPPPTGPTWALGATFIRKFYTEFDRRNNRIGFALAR
# Test details: Human Renin Inhibition in vitro (angiotensin I by radioimmunoassay)
# Condition description: pH 7.4, 37° C., two hours, human plasma

Compound	IC50 [nM]
CC(C)C[C@H](O)[C@H](O)[C@H](CC1CCCCC1)NC(=O)C(C)CNC(=O)C(Cc1ccccc1)CS(=O)(=O)C(C)(C)C (stereo partly shown) [Example 1]	10
